# Test system: K562 CRISPRi cells
# Assay Summary: Perturb-seq pooled growth measurement (sgRNA counts, growth phenotype γ, relative activity)
# Type: cell-based, human
# Run Conditions: sequencing read counts; 10 days of growth (day twelve after transduction)
Assay Endpoint: Perturb-seq pooled growth sgRNA counts, d10

[[record]]
substance = "HSPA5_+_128003624.23-P1P2_00: sgRNA targeting HSPA5, GAGCCGAGTAGGCGACGGTG, SEQ ID NO: 88 (listed as DNA, chemistry not fully specified)"
target_entity = "K562 CRISPRi cells"
quantitative_readout = 2176

[[record]]
substance = "non-targeting_00802: non-targeting negative control sgRNA, GCACGACGCTCCGGCACGCG, SEQ ID NO: 169 (listed as DNA, chemistry not fully specified) [reference compound]"
target_entity = "K562 CRISPRi cells"
quantitative_readout = 27842

[[record]]
substance = "HSPE1_+_198365089.23-P1P2_01: sgRNA targeting HSPE1, GGAGACACGCAGTCCGGCCC, SEQ ID NO: 65 (listed as DNA, chemistry not fully specified)"
target_entity = "K562 CRISPRi cells"
quantitative_readout = 2663

